All figures here come from the RNAGym collection of RNA variant scans (doi:10.1021/acssynbio.7b00057).

B1: Pistol ribozyme (parent)
chain: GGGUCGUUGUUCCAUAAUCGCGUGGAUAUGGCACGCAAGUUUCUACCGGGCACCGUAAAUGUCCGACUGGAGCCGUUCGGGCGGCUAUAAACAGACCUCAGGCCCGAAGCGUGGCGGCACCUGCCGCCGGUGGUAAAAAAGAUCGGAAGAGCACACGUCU

- Variants of: B1
- measurementDescription: aptazyme ON/OFF ratio, guanine; higher = stronger switching; co-transcriptional cleavage with and without guanine
Give aptazyme ON/OFF ratio for every item shown.
Lab note: jot down the number only; don't add units.

Req: If you can, please state the reported aptazyme ON/OFF ratio value of U8A G9C U11C .
Resp: 1.03

Req: If you can, please state the reported aptazyme ON/OFF ratio value of G9A U10G C12G C13A .
Resp: 1.19

Req: If you can, please state the reported aptazyme ON/OFF ratio value of U8A G9U U11G C12G .
Resp: 1.12

Req: If you can, please state the reported aptazyme ON/OFF ratio value of U7G U8C U10A U11G C12G .
Resp: 1.19

Req: If you can, please state the reported aptazyme ON/OFF ratio value of U7G U8G G9A U10A U11C C12G .
Resp: 1.23

Req: If you can, please state the reported aptazyme ON/OFF ratio value of U7G U8C U10C C12U C13A .
Resp: 1.15

Req: If you can, please state the reported aptazyme ON/OFF ratio value of U7G U8A U10A U11G C12A C13G .
Resp: 1.19

Req: If you can, please state the reported aptazyme ON/OFF ratio value of U7C U8C U11G C12U C13A .
Resp: 1.14

Req: If you can, please state the reported aptazyme ON/OFF ratio value of U7A G9U U10G C12A C13A .
Resp: 1.16

Req: If you can, please state the reported aptazyme ON/OFF ratio value of U7A U8C U10A U11C C12U C13U .
Resp: 1.05

Req: If you can, please state the reported aptazyme ON/OFF ratio value of U7G G9A C13A .
Resp: 1.24

Req: If you can, please state the reported aptazyme ON/OFF ratio value of U7G U8A G9U U10C U11G C12G .
Resp: 1.1

Req: If you can, please state the reported aptazyme ON/OFF ratio value of U8C G9A U11G C13A .
Resp: 1.23

Req: If you can, please state the reported aptazyme ON/OFF ratio value of U7A U8A G9C U10G U11C C13A .
Resp: 1.09

Req: If you can, please state the reported aptazyme ON/OFF ratio value of U7A U8A G9A U10C U11A C13G .
Resp: 1.09

Req: If you can, please state the reported aptazyme ON/OFF ratio value of U7A U10C C13A .
Resp: 1.06

Req: If you can, please state the reported aptazyme ON/OFF ratio value of U8G G9A U10G C12U .
Resp: 1.39

Req: If you can, please state the reported aptazyme ON/OFF ratio value of U7C U8A G9C U10G C12U .
Resp: 1.36

Req: If you can, please state the reported aptazyme ON/OFF ratio value of U7A U8A U10C C12A C13A .
Resp: 1.13

Req: If you can, please state the reported aptazyme ON/OFF ratio value of U7A G9A U10A U11C C12U C13A .
Resp: 1.13

Req: If you can, please state the reported aptazyme ON/OFF ratio value of U7G U8G G9A U10A U11C C13A .
Resp: 1.08

Req: If you can, please state the reported aptazyme ON/OFF ratio value of U7C U8G G9C U10A U11C C13G .
Resp: 1.04
